# Test system: NCI-H292;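 note: growth inhibition of NCI-H292 cells, read out with a cell viability assay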
# Test description: cells
# Assay type: functional, cell-based
# Condition details: Homo sapiens
# Description: SANGER: Inhibition of human NCI-H292 cell growth in a cell viability assay.
Catalogue of IC50 readings, one per entry.
Metric: IC50 (µM)

[
  {
    "Smiles code": "NC(=O)c1ccc(N(C(N)=O)c2c(F)cccc2F)nc1-c1ccc(F)cc1F",
    "Units of measure": "µM",
    "Value modifier": ">",
    "Endpoint value": 2
  },
  {
    "Smiles code": "C/C(=C\\c1csc(C)n1)[C@@H]1C[C@@H]2O[C@]2(C)CCC[C@H](C)[C@H](O)[C@@H](C)C(=O)C(C)(C)[C@@H](O)CC(=O)O1",
    "Units of measure": "µM",
    "Value modifier": "=",
    "Endpoint value": 0.00142
  },
  {
    "Smiles code": "CN(C)CCOc1ccc(-c2nc(-c3ccncc3)c(-c3ccc4c(c3)CC/C4=N\\O)[nH]2)cc1",
    "Units of measure": "µM",
    "Value modifier": "=",
    "Endpoint value": 4.38
  },
  {
    "Smiles code": "OC[C@H](Cc1ccccc1)Nc1nc(Oc2ccc3c(c2)CCC3)nc2c1ncn2Cc1ccc(-c2ccccc2)cc1",
    "Units of measure": "µM",
    "Value modifier": ">",
    "Endpoint value": 10.2
  }
]

---

# Test system: HCT-116
# Test description: cells
# Assay type: functional, cell-based
# Condition details: Homo sapiens
# Description: SANGER: Inhibition of human HCT-116 cell growth in a cell viability assay.
pIC50: −log10 of the molar value.

[
  {
    "Compound": "COC(=O)[C@H](CCSC)NC(=O)c1ccc(NC[C@@H](N)CS)cc1-c1ccccc1",
    "Target": "HCT-116",
    "Value modifier": "<",
    "pIC50": 5.99
  },
  {
    "Compound": "COc1ccc(-c2cc3nccn3c(Nc3ncccc3C(N)=O)n2)cc1OC",
    "Target": "HCT-116",
    "Value modifier": "=",
    "pIC50": 5.40
  },
  {
    "Compound": "NC(=O)Nc1cc(-c2cccc(F)c2)sc1C(=O)N[C@H]1CCCNC1 [AZD-7762]",
    "Target": "HCT-116",
    "Value modifier": "=",
    "pIC50": 5.85
  },
  {
    "Compound": "OC[C@H](Cc1ccccc1)Nc1nc(Oc2ccc3c(c2)CCC3)nc2c1ncn2Cc1ccc(-c2ccccc2)cc1",
    "Target": "HCT-116",
    "Value modifier": "<",
    "pIC50": 4.99
  },
  {
    "Compound": "NC1(c2ccc(-c3nc4ccn5c(=O)[nH]nc5c4cc3-c3ccccc3)cc2)CCC1 [MK-2206]",
    "Target": "HCT-116",
    "Value modifier": "<",
    "pIC50": 5.40
  }
]

---

# Tested on: LS-411N
# Test description: cells
# Type: functional, cell-based, Homo sapiens
# Condition details: ls-411n
pIC50: −log10 of the molar value. Where a SMILES comes first, the peptide text is derived from it. The star is where a group is joined. Cbz = O=C(OCc1ccccc1)*
Metric: pIC50

[
  {
    "Molecule": "CC(C)C[C@@H](C=O)NC(=O)[C@H](CC(C)C)NC(=O)[C@H](CC(C)C)NC(=O)OCc1ccccc1 [MG-132] (Cbz-Leu-Leu-Leu-aldehyde)",
    "Metric": "pIC50",
    "Endpoint value": "< 6.00"
  }
]
